Source of measurements: the array DNA melting data of Ke et al. (doi:10.1101/2024.01.08.574731)

- testSummary: folding enthalpy; higher = less favourable; fluorescence melt of hairpins on a sequencing array, two-state fit
- conditionDescription: sodium 0.088 M
Entries and their folding enthalpy
# number only, unit kcal/mol dropped from output

# example entries with known answers
INSERT INTO assay_data (polymersequence, experimentalreadout, value) VALUES
  ('GCGGTCGGAAACGACCAC (.(((((....))))).)', 'folding enthalpy', -11.6),
  ('GCTCACGAAAGTGTAGC ((((((....))).)))', 'folding enthalpy', -24.6);

Field folding enthalpy (entry GATCAATTTATTGATC ((((((....)))))) ) reads -52.4

Kindly note the recorded folding enthalpy for GTCTGGTCGAAAGACGAC (((..(((....)))))) , which is -17.2

Recorded folding enthalpy (sequence GGACTTGGAAACGAGTTC (.(((.(....).))).) ): -21.5

Measured folding enthalpy, GCGCTGCGAAAGCACGGC ((..(((....)))..)) : -15.1
